molecular target: Calmodulin-1 (Homo sapiens) (UniProt P0DP23); assay: CALM1 binders on microarrays, EGTA buffer, profiling panel, biochemical, small-molecule microarray, Cy5-labelled CALM1 (AID 1111); details: Cy5-CALM1 binding fluorescence, higher = more signal;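 note: labelled calmodulin applied in Tris saline Tween buffer holding calcium plus EGTA and DTT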
For each entry below, report its composite z-score value.

-- ask Provide composite z-score value for the following molecule: CCN1C(=O)[C@H]2[C@H]3[C@H](O)[C@H](O)CC(=NOC[C@@H](O)COCc4ccco4)[C@H]3CC[C@H]2C1=O
-- reply -2.21

-- ask Return value of composite z-score for input O=C1[C@H]2[C@H]3[C@H](O)[C@H](O)CC(=NOCc4ccccc4)[C@@H]3CC[C@H]2C(=O)N1c1cccc(Oc2ccccc2)c1 , no commentary.
-- reply -0.0299

-- ask Retrieve composite z-score measured for COC(OC)[C@@H](C)[C@H](OC)[C@@H](C)[C@H](OC)c1ccccc1 and print it.
-- reply -1.15

-- ask Note down composite z-score recorded for COC(=O)[C@H](C)NC(=O)CCC1CC(OC(=O)NCCc2ccc(F)cc2)CC2(CCCC(COC(=O)NCC3CCCCC3)O2)O1 (some centres not stated)
-- reply 0.71

-- ask Quickly give me recorded composite z-score for CC(C)(C)N1C(=O)[C@H]2[C@H]3[C@H](O)[C@H](O)CC(=NOC[C@@H](O)COCc4ccco4)[C@H]3CC[C@H]2C1=O
-- reply -0.0051

-- ask Find the measured composite z-score of CCO[C@H](c1cc(OC)cc([N+](=O)[O-])c1OC)[C@H](C)[C@@H](OC)[C@H](C)C=CCC(=O)OC and report it.
-- reply 0.379

-- ask Give a short answer stating reported composite z-score for COc1ccc(O[C@H]2C=C[C@@H](c3ccccc3)O[C@@H]2CON=C(C)CCN2CCCc3nc(C)c(C)cc32)cc1 .
-- reply 0.284

* * *

Kindly supply the reported composite z-score values for the records listed here.
target: Neurogenic locus notch homolog protein 2 (Homo sapiens) (UniProt Q04721); assay: Notch2 binders on small-molecule microarrays, primary screen, biochemical, small-molecule microarray, 635 nm fluorescence, stem cell growth factors (AID 1073); settings: Notch2 binding, higher = more signal
Sequence (Q04721 whole entry, looked up): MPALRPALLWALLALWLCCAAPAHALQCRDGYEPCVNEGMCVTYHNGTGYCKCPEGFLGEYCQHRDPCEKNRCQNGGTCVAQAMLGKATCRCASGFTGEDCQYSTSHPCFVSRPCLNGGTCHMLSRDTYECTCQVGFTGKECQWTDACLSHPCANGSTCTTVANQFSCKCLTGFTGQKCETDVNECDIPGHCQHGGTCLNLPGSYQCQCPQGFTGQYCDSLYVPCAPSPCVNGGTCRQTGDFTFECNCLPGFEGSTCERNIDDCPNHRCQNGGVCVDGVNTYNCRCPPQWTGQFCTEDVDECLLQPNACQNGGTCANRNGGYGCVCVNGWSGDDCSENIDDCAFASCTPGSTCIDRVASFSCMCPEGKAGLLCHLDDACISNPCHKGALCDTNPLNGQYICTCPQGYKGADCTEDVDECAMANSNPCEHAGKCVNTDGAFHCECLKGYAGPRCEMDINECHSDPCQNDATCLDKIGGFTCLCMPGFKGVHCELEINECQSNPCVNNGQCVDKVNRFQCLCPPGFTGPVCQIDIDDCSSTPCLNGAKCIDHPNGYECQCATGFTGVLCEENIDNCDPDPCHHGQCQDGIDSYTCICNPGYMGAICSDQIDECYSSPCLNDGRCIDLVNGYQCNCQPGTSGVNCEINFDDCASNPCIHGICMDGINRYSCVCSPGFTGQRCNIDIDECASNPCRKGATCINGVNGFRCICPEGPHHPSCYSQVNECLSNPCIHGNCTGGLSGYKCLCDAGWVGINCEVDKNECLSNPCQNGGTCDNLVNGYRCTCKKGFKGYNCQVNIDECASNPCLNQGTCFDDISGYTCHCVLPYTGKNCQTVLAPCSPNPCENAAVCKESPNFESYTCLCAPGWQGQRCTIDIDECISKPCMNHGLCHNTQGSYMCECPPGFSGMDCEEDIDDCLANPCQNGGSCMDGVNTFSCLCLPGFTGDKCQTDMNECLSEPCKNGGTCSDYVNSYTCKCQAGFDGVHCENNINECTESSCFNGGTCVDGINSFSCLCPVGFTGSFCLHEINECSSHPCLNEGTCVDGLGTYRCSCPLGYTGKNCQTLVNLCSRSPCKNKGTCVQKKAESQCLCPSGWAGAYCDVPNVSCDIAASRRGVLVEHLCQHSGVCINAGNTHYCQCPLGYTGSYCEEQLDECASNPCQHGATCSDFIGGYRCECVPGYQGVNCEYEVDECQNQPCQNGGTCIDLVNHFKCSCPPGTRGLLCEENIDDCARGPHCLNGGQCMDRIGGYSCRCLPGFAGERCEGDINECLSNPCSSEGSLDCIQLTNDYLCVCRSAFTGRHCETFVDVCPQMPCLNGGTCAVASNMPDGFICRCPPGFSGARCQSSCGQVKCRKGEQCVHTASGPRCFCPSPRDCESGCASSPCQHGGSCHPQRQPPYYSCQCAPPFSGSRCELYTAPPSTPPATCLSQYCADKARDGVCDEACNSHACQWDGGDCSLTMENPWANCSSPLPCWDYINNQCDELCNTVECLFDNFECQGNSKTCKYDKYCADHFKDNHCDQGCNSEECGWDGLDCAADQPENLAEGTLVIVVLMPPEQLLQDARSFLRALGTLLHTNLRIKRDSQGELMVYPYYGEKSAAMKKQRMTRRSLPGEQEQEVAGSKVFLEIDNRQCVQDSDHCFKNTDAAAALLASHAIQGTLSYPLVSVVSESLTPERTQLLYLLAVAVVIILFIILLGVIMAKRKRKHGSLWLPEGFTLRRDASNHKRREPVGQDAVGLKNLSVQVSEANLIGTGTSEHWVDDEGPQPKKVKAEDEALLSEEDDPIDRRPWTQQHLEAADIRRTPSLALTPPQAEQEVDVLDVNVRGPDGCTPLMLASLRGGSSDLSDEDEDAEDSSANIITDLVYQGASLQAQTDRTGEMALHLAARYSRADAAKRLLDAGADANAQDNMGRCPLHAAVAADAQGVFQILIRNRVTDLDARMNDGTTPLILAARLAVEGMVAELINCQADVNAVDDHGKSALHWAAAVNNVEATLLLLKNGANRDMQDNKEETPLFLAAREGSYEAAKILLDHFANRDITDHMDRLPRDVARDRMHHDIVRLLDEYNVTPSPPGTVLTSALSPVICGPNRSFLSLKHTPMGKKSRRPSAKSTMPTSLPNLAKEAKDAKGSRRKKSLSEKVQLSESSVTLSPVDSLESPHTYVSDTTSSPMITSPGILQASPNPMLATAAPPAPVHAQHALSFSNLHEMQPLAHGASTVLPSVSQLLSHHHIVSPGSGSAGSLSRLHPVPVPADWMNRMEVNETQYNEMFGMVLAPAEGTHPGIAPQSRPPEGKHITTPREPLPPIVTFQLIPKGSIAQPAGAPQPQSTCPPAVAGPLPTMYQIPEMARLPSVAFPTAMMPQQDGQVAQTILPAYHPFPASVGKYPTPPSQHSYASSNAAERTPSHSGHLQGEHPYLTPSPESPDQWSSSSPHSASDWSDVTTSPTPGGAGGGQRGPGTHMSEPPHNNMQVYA
Respond with the number and no other words.

-- ask Recall the reported composite z-score of COc1ccc(O[C@H]2C=C[C@@H](c3ccccc3)O[C@@H]2COC(=O)CCC(C)=NOC[C@@H](O)COCc2ccco2)cc1 when tested on Neurogenic locus notch homolog protein 2 (Homo sapiens) (UniProt Q04721).
-- reply -2.67

-- ask Find composite z-score for CC(C)[C@@H](OCc1ccccc1)[C@H](C)C=NO[C@@H](C)c1cn([C@H](CO)Cc2ccccc2)nn1 on Neurogenic locus notch homolog protein 2 (Homo sapiens) (UniProt Q04721) and write it down.
-- reply 0.301

-- ask Please respond with reported composite z-score (system Neurogenic locus notch homolog protein 2 (Homo sapiens) (UniProt Q04721)) for COCC#Cc1ccc([C@@H]2N[C@H](C(=O)O)CC[C@H]2C)cc1 .
-- reply 0.314

-- ask Fetch value of composite z-score on Neurogenic locus notch homolog protein 2 (Homo sapiens) (UniProt Q04721) for COC(=O)C1=C(C)N(Cc2ccccc2)C2=C3C(=O)OCC[C@@H]3[C@@](O)(C(=O)OC)C(=O)N2[C@@H]1c1ccccc1 .
-- reply 0.346

-- ask // output composite z-score; input CC(C)=CCCC(C)=CCON=C1C[C@@H](O)[C@@H](O)[C@@H]2[C@@H]3C(=O)N(Cc4ccc5c(c4)OCO5)C(=O)[C@@H]3CC[C@@H]12 ; system Neurogenic locus notch homolog protein 2 (Homo sapiens) (UniProt Q04721)
-- reply 0.397

-- ask // output composite z-score; input CO[C@H]1COC(=O)[C@H](C)COC(=O)[C@H](C)NC(=O)CC=C[C@H]1C ; system Neurogenic locus notch homolog protein 2 (Homo sapiens) (UniProt Q04721)
-- reply 0.127

-- ask Please look at C[C@H]1CC[C@@H](C(=O)O)N[C@@H]1c1ccc(C#Cc2ccccc2)cc1 and tell me its recorded composite z-score on Neurogenic locus notch homolog protein 2 (Homo sapiens) (UniProt Q04721).
-- reply 1.32

-- ask // output composite z-score; input C=CC[C@@H]1C=C[C@H](Oc2ccc(C)cc2)[C@@H](COC(=O)NCc2cccc3ccccc23)O1 ; system Neurogenic locus notch homolog protein 2 (Homo sapiens) (UniProt Q04721)
-- reply -0.141

* * *

biological target: Epidermal growth factor receptor (Homo sapiens); assay: EGFR binders on small-molecule microarrays, primary screen, biochemical, small-molecule microarray, 635 nm fluorescence (AID 1104); conditions: EGFR binding, higher = more signal;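 note: score merges 667 nm emission intensity with spot signal to noise over triplicate slides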
Record 1 whenever composite z-score is at 0.2 or higher; record -1 when lower.

-- ask Tell me whether composite z-score is at least 0.2 here: O=C(NN=C1C[C@@H](O)[C@@H](O)[C@@H]2[C@@H]3C(=O)N(c4ccc(F)cc4F)C(=O)[C@@H]3CC[C@H]12)OCc1ccccc1
-- reply -1

-- ask Check if composite z-score >= 0.2 (inclusive). Item: CC(=O)OC[C@H]1O[C@@H](ON=C(C)CCC(=O)OC[C@H]2O[C@H](C#Cc3ccccc3)C=C[C@@H]2Oc2ccc(C)cc2)[C@H](OC(C)=O)[C@@H](OC(C)=O)[C@@H]1OC(C)=O
-- reply 1

-- ask Is composite z-score for C#CCCCON=C1C[C@@H](O)[C@@H](O)[C@@H]2[C@@H]3C(=O)N(C[C@@H]4CCCO4)C(=O)[C@@H]3CC[C@H]12 at or above 0.2?
-- reply 1

-- ask Determine whether this compound has composite z-score no lower than 0.2: CCN1C(=O)[C@H]2[C@H]3[C@H](O)[C@H](O)CC(=NOC[C@@H](O)[C@H]4O[C@@H]5OC(C)(C)O[C@@H]5[C@H]4O)[C@@H]3CC[C@H]2C1=O
-- reply 1

-- ask API: above_or_equal(metric=composite z-score, cutoff=0.2) for item CC(C)(C)N1C(=O)[C@H]2[C@H]3[C@H](O)[C@H](O)CC(=NNC(=O)OCc4ccccc4)[C@H]3CC[C@H]2C1=O
-- reply 1

-- ask Given the entry COc1ccc(COC(=O)NN=C2C[C@@H](O)[C@@H](O)[C@@H]3[C@@H]4C(=O)N([C@@H](C)c5ccccc5)C(=O)[C@@H]4CC[C@H]23)cc1 , answer whether its composite z-score meets or surpasses 0.2.
-- reply -1

* * *

biological target: E3 ubiquitin-protein ligase XIAP (Homo sapiens) (UniProt P98170); experiment: XIAP binders, primary screen, biophysical, small-molecule microarray, fluorescence 635 nm (AID 1181); details: small-molecule microarray binding, higher = more signal;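 note: score merges 667 nm emission and signal to noise over triplicate slides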
Sequence (P98170 whole entry, looked up): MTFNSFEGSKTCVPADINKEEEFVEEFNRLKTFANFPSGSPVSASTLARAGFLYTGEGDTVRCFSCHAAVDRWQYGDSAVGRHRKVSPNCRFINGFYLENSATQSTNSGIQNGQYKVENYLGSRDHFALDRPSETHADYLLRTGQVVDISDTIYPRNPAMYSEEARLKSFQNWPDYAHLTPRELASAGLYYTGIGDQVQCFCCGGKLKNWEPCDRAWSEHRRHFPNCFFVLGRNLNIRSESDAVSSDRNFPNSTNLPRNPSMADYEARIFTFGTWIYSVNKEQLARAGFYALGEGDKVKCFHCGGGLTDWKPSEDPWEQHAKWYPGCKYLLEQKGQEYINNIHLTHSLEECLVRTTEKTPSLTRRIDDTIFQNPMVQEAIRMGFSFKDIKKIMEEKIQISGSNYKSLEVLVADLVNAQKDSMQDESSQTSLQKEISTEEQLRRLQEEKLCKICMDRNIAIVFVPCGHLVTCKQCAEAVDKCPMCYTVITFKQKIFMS
measured-endpoint: composite z-score
Answer with the value's number alone.

-- ask Hello, please tell me recorded composite z-score for this one: COC(=O)[C@H](C)NC(=O)CCC1CC(OC(=O)NCc2ccc3c(c2)OCO3)CC2(CCCC(COC(=O)NCCCN3CCCC3=O)O2)O1 (some centres not stated)
-- reply -0.245

-- ask Specify measured composite z-score for O=C1C[C@@H](O)[C@@H](O)[C@@H]2[C@@H]3C(=O)N(c4ccc(F)cc4F)C(=O)[C@@H]3CC[C@H]12 .
-- reply -0.214

-- ask Specify composite z-score for O=C1CCCC=C1C(O)c1ccc([N+](=O)[O-])cc1 (configuration not stated) and stop.
-- reply -0.0019

-- ask Please indicate composite z-score recorded for COc1ccc(OC[C@@H]2CC3[C@@H](c4ccc(Br)cc4)[C@H](C)CC[C@H]3C(=O)O2)cc1 (some centres not stated)
-- reply 0.326

-- ask Determine its reported composite z-score: CC(CCN1CCCCc2nc(C)c(C)cc21)=NOC[C@@H](O)[C@H]1O[C@@H]2OC(C)(C)O[C@@H]2[C@H]1O
-- reply -0.0323

-- ask Indicate its recorded composite z-score; the compound in question is CCOC(=O)[C@H](CC(C)C)NC(=O)CCC1CC(OC(=O)NCCc2ccc(F)cc2)CC2(CCCC(COC(=O)NCc3cccc(C(F)(F)F)c3)O2)O1 (some centres not stated)
-- reply -0.383

-- ask Provide measured composite z-score value, entry: CCOC(=O)[C@H](CC(C)C)NC(=O)CCC1CC(OC(=O)NCc2ccc3c(c2)OCO3)CC2(CCCC(COC(=O)NCCc3ccc(Cl)cc3)O2)O1 (some centres not stated)
-- reply -0.157

* * *

target: Torsin-1A-interacting protein 1 (Homo sapiens); test: LAP1 binders from COS7 cell lysate, primary screen, small-molecule microarray, 635/667 nm fluorescence (AID 1116); settings: COS7-hLAP1 lysate binding, 635 nm fluorescence, higher = more signal
Parameter threshold = 0.3. Response is TRUE when composite z-score meets or exceeds it, else FALSE.

-- ask Is composite z-score for CCN1C(=O)[C@H]2[C@@H]3C(=CC[C@H]2C1=O)C(=O)[C@H]1O[C@H]1[C@H]3O at or above 0.3?
-- reply FALSE

-- ask // inclusive: composite z-score at least 0.3? input: CCOC(=O)CCN1C(=O)[C@H]2[C@H]3[C@H](O)[C@H](O)CC(=NO[C@@H]4O[C@H](CO)[C@@H](O)[C@H](O)[C@H]4O)[C@H]3CC[C@H]2C1=O
-- reply FALSE

-- ask Quick check: does CCOC(=O)CCN1C(=O)[C@H]2[C@H]3[C@H](O)[C@H](O)CC(=NOCC(C)C)[C@@H]3CC[C@H]2C1=O have composite z-score greater than or equal to 0.3?
-- reply FALSE

-- ask Check if composite z-score >= 0.3 (inclusive). Item: COC(=O)[C@@H]1CC[C@H](C)[C@@H](c2ccc(C)cc2)N1C(=O)c1ccc(C=NOC[C@H]2O[C@H](c3ccccc3)C=C[C@@H]2Oc2ccc(OC)cc2)cc1
-- reply TRUE

-- ask Threshold query (composite z-score >= 0.3) on CO[C@@H]1C=CCC(=O)N[C@@H](C)C(=O)OC[C@@H](NS(=O)(=O)c2ccc(C)cc2)[C@H](C)C=CCC(=O)OC[C@H]1C
-- reply FALSE
